Entry source: patent US8058009B2

System: FLJ14583-derived protein (Homo sapiens, UniProt Q12816)
Sequence (Q12816 1-706 isoform Q12816-2): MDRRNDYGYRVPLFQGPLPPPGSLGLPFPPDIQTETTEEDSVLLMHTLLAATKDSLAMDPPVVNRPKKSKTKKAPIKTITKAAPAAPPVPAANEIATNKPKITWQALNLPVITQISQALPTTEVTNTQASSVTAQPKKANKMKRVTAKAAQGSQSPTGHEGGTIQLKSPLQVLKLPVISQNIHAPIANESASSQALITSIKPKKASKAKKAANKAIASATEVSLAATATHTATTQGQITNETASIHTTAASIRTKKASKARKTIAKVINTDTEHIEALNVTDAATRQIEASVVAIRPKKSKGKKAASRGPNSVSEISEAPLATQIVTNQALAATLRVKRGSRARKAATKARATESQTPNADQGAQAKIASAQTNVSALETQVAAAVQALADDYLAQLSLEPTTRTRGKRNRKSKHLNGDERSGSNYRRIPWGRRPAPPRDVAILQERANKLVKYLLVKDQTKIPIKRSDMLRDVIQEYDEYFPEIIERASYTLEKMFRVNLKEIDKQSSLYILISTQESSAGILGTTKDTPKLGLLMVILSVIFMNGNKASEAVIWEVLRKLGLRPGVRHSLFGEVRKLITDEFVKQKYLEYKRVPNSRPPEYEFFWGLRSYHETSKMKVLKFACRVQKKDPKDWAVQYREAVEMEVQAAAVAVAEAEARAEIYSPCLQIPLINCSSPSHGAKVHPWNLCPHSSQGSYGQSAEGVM
Assay metric: Kd (µM)
Report only the number, with the unit µM understood.

Query string: // query Kd value for entry Cc1onc(-c2c(Cl)cccc2Cl)c1C(=O)N[C@@H]1C(=O)N2[C@@H]1SC(C)(C)[C@@H]2C(=O)O
Result string: 23

* * *

Reported pKd is given for each of the following compounds.
System: FLJ11045-derived protein (Homo sapiens, UniProt Q9BXT8, E1380K)
Sequence (Q9BXT8 949-1581 isoform Q9BXT8-4 E1338K): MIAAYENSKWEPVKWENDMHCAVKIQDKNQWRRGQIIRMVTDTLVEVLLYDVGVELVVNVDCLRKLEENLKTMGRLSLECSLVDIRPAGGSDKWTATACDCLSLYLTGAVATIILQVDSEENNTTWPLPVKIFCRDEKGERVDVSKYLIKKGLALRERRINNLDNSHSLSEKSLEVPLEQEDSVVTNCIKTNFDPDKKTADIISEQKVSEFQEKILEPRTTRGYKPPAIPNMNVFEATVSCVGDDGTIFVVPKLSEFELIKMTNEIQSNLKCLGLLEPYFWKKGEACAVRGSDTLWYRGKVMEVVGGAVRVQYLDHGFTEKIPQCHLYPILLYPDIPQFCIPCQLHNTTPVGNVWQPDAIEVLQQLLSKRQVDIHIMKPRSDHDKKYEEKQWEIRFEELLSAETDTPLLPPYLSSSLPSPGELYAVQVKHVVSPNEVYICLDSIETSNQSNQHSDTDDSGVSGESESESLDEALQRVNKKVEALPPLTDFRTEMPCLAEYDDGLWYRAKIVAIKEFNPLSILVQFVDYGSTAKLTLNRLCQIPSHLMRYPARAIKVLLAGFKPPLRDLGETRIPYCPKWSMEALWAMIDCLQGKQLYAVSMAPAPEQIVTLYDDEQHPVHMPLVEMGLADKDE
Assay text: Biacore S51 surface plasmon resonance binding to FLJ11045-derived protein
Particulars: Biacore S51, immobilized FLJ11045-derived protein, analyte 62.5 μM to 0.244 μM; read-out: binding dissociation constant Kd
Value format note: pKd is -log10 of concentration (mol/L); just state the number.

- N[C@@H](C(=O)N[C@@H]1C(=O)N2C(C(=O)O)=C(Cl)CS[C@H]12)c1ccccc1 [cefaclor]: 4.91

Okay, now this compound:
Query string: // query pKd value for entry CC1=C(C(=O)O)N2C(=O)[C@@H](NC(=O)[C@H](N)c3ccc(O)cc3)[C@H]2SC1 [cefadroxil]
Result string: 4.94
